Molecular target: human hNET (Homo sapiens, UniProt P23975)
Construct: expressed in transfected cells
Sequence (P23975 whole entry): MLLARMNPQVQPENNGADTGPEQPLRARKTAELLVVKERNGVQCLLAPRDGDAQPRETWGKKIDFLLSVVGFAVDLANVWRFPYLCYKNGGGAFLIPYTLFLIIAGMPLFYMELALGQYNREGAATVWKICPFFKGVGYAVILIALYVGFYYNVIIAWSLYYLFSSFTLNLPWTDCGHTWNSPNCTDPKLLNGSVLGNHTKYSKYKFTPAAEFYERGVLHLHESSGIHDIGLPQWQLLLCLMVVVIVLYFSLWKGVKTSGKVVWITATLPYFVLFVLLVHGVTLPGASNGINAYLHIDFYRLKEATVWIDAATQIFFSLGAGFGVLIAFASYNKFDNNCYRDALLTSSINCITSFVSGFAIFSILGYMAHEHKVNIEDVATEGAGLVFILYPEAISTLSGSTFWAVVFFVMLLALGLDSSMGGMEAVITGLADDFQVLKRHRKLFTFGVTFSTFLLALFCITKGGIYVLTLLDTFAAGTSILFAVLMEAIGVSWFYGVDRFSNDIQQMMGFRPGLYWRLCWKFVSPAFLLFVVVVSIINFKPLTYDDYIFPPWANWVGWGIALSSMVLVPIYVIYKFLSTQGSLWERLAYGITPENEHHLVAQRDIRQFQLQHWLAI
Test: Norepinephrine (NE) uptake assay
Assay type: cell-based
Conditions: 1 μM test compound; MDCK-Net6 cells stably transfected with human hNET; [3H]NE uptake
Structures can show the parent of a compound that is named as a salt.
measured_property: inhibition at 1 µM (%)
Write the number in % without appending the unit.

compound	unit_of_measure	inhibition at 1 µM
CNC[C@@H](O)[C@H](c1ccccc1)N1CCOc2ccc(Cl)cc21 (single isomer, unassigned) [Example 13, hydrochloride]	%	38.6

Exercise: I would be grateful if you could share the reported inhibition at 1 µM for CNC[C@@H](O)[C@H](c1cccc(F)c1)N1CC(c2ccccc2)Oc2ccccc21 (some centres unmarked) [Example 19, hydrochloride] .
Solution: 95

Exercise: I would be grateful if you could share the reported inhibition at 1 µM for CNC[C@@H](O)[C@H](c1ccccc1)N1CCOc2ccc(C)cc21 (racemic) [Example 12, hydrochloride] .
Solution: 3.4

Exercise: I would be grateful if you could share the reported inhibition at 1 µM for CNC[C@@H](O)[C@H](c1cccc(F)c1)N1C[C@@H](c2ccccc2)Oc2ccccc21 (single isomer, unassigned) [Example 20, hydrochloride] .
Solution: 97.2

Exercise: I would be grateful if you could share the reported inhibition at 1 µM for CNC[C@@H](O)[C@H](c1ccccc1)N1CCOc2ccc(Cl)cc21 (racemic) [Example 11, hydrochloride] .
Solution: 60.6
